I'd appreciate it if you could supply SPOT signal as a fraction of Bim BH3's signal on the same receptor and array values for the items below.
- TARGET: Bcl-2, P10415
- Sequence (P10415 1-217): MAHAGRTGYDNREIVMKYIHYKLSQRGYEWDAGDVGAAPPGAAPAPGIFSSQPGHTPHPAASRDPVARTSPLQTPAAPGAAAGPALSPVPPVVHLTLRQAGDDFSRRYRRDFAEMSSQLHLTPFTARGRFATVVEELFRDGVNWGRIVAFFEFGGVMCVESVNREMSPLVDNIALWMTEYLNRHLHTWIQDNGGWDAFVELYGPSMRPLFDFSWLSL
- METHOD DESCRIPTION: peptide SPOT array, c-Myc-tagged receptor at 1 uM or 100 nM, anti-c-Myc-Cy3
Please reply with the value in numeric form only.

*Q* Entry under review: SQRGTDFSVLLSSAGDSFSQFRFAEE [AVEN] . Reported SPOT signal as a fraction of Bim BH3's signal on the same receptor and array?
*A* 0.02

*Q* Entry under review: SCMATVIHNPLKALGDQFYKEAIEHC [DPF3] . Reported SPOT signal as a fraction of Bim BH3's signal on the same receptor and array?
*A* 0.15

*Q* Entry under review: SVGGRGISSKLDSLADELKFVPIIGI [SACS] . Reported SPOT signal as a fraction of Bim BH3's signal on the same receptor and array?
*A* 0.01

*Q* Entry under review: EKNLPKMAEALAHGADVNWANSEENK [ACAP2] . Reported SPOT signal as a fraction of Bim BH3's signal on the same receptor and array?
*A* 0.01

*Q* Entry under review: FQQTISCPEGLRLVGSEVGDRTLPGW [IRF3] . Reported SPOT signal as a fraction of Bim BH3's signal on the same receptor and array?
*A* 0.01

*Q* Entry under review: MRPEIWIAQEDRRIGDEFNAYYARRV [BCL2L11] . Reported SPOT signal as a fraction of Bim BH3's signal on the same receptor and array?
*A* 0.05

*Q* Entry under review: QLRLSDAGQYLCQAGDDSNSNKKNAD [PIGR] . Reported SPOT signal as a fraction of Bim BH3's signal on the same receptor and array?
*A* 0.01
